Origin of values: paper PMC9505067

target: androgen receptor (AR) (Homo sapiens, UniProt P10275)
method: AR antagonist luciferase gene reporter assay (AR plasmid pSVAR0 + MMTV-Luc, DHT at EC80)
condition-details: Antagonist Activity in CV-1 IC50, luciferase reporter in AR-transfected cells, DHT at EC80, 24 h incubation; means ± SD of three independent experiments
readout: IC50 (nM)
Give bare numbers, in nM.

Look over these answered cases.
molecule	IC50 (nM)
CC1(CO)C(=O)N(c2ccc(C#N)c(C(F)(F)F)c2)C(=S)N1c1ccc(Cl)cc1 (centres unmarked)	79.3
COc1ccc(N2C(=O)N(c3ccc(C#N)c(C(F)(F)F)c3)C(=O)C2(C)CO)cc1 (centres unmarked)	416
CC1(CO)C(=O)N(c2ccc(C#N)c(C(F)(F)F)c2)C(=S)N1c1ccccc1 (centres unmarked)	46.8
CC1(CO)C(=O)N(c2ccc(C#N)c(C(F)(F)F)c2)C(=O)N1c1ccc(C#N)cc1 (centres unmarked)	61
CC1(CO)C(=O)N(c2ccc(C#N)c(C(F)(F)F)c2)C(=O)N1c1ccccc1 (centres unmarked)	94.8

Lab note: each molecule below needs its IC50 filled in.
1. CC(=O)Nc1ccc(N2C(=S)N(c3ccc(C#N)c(C(F)(F)F)c3)C(=O)C2(C)CO)cc1 (centres unmarked)
2. CC1(CO)C(=O)N(c2ccc(C#N)c(C(F)(F)F)c2)C(=S)N1c1ccc(C(F)(F)F)cc1 (centres unmarked)
3. CNC(=O)c1ccc(N2C(=S)N(c3ccc(C#N)c(C(F)(F)F)c3)C(=O)C2(C)CO)cc1F (centres unmarked)
4. COc1ccc(N2C(=S)N(c3ccc(C#N)c(C(F)(F)F)c3)C(=O)C2(C)CO)cc1 (centres unmarked)
5. CC1(CO)C(=O)N(c2ccc(C#N)c(C(F)(F)F)c2)C(=S)N1c1ccc(F)cc1 (centres unmarked)
6. CC1(CO)C(=O)N(c2ccc(C#N)c(C(F)(F)F)c2)C(=S)N1c1ccc(O)cc1 (centres unmarked) [11a]

[939, 68.2, 126, 286, 46.2, 3640]

====

target: androgen receptor (AR) (Homo sapiens)
Sequence (P10275 1-920): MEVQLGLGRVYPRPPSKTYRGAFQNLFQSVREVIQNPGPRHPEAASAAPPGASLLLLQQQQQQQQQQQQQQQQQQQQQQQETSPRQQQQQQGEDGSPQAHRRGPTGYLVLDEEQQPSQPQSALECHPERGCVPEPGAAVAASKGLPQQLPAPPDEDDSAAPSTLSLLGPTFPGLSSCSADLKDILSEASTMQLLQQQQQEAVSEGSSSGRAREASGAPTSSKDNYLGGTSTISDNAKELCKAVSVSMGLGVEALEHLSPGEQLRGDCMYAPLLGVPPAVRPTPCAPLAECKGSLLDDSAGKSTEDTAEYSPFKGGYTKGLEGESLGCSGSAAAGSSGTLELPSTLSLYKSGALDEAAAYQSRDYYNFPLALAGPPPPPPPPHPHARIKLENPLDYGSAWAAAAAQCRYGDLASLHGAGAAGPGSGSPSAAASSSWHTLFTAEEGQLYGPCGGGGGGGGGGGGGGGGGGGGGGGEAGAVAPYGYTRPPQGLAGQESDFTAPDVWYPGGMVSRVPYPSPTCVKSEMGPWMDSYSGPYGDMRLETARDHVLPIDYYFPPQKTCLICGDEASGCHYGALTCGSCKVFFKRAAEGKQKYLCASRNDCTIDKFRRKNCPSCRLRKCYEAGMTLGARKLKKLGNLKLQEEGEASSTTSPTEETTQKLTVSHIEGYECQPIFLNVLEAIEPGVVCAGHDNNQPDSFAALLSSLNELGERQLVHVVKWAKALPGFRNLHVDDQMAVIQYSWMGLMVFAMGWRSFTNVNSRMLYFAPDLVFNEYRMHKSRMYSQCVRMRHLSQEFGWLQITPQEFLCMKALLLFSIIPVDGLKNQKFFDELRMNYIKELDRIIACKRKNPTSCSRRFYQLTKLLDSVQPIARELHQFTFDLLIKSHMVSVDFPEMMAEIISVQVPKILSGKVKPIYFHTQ
method: AR antagonist luciferase gene reporter assay (AR plasmid pSVAR0 + MMTV-Luc, DHT at EC80)
readout: Antagonist Activity in CV-1 Efficacy (%)
Give bare numbers, in %.

Look over these answered cases.
compound	target	readout-units	observed-result
CC1(CO)C(=O)N(c2ccc(C#N)c(C(F)(F)F)c2)C(=O)N1c1ccc(Cl)cc1 (centres unmarked)	androgen receptor (AR) (Homo sapiens)	%	94
CC1(CO)C(=O)N(c2ccc(C#N)c(C(F)(F)F)c2)C(=O)N1c1ccc([N+](=O)[O-])cc1 (centres unmarked)	androgen receptor (AR) (Homo sapiens)	%	93
CC1(CO)C(=O)N(c2ccc(C#N)c(C(F)(F)F)c2)C(=S)N1c1ccc(C#N)cc1 (centres unmarked)	androgen receptor (AR) (Homo sapiens)	%	102
CNC(=O)c1ccc(N2C(=S)N(c3ccc(C#N)c(C(F)(F)F)c3)C(=O)C2(C)CO)cc1F (centres unmarked)	androgen receptor (AR) (Homo sapiens)	%	88

Form field: reported Antagonist Activity in CV-1 Efficacy of CC(=O)Nc1ccc(N2C(=S)N(c3ccc(C#N)c(C(F)(F)F)c3)C(=O)C2(C)CO)cc1 (centres unmarked)
95

====

Please provide measured pIC50 for the entries that follow.
target: androgen receptor (AR) (Homo sapiens, UniProt P10275)
method: AR antagonist luciferase gene reporter assay (AR plasmid pSVAR0 + MMTV-Luc, DHT at EC80)
One number for each entry, as −log10 of the molar value.

Look over these answered cases.
compound	pIC50
CN1CCC(Oc2ccc(N3C(=S)N(c4cnc(C#N)c(C(F)(F)F)c4)C(=O)C3(C)CO)cc2)CC1 (stereo not drawn) [19d]	6.86
CNC(=O)c1ccc(N2C(=S)N(c3cnc(C#N)c(C(F)(F)F)c3)C(=O)C2(C)CO)cc1F (stereo not drawn) [19c]	6.04

Next compound, please.
Form field: reported pIC50 of CC1(CO)C(=O)N(c2cnc(C#N)c(C(F)(F)F)c2)C(=S)N1c1ccc(F)cc1 (stereo not drawn) [19b]
7.49

====

readout: melting point

Look over these answered cases.
compound	melting point
COC(=O)c1ccc(N2C(=S)N(c3ccc(C#N)c(C(F)(F)F)c3)C(=O)C2(C)CO)cc1 (centres unmarked)	168 to 170 °C
CC1(CO)C(=O)N(c2ccc(C#N)c(C(F)(F)F)c2)C(=S)N1c1ccc(Br)cc1 (centres unmarked)	206 to 208 °C
Cc1ccc(N2C(=O)N(c3ccc(C#N)c(C(F)(F)F)c3)C(=O)C2(C)CO)cc1 (centres unmarked)	156 to 158 °C

Lab note: each compound below needs its melting point filled in.
1. COC(=O)c1ccc(N2C(=O)N(c3ccc(C#N)c(C(F)(F)F)c3)C(=O)C2(C)CO)cc1 (centres unmarked)
2. CC1(CO)C(=O)N(c2ccc(C#N)c(C(F)(F)F)c2)C(=S)N1c1ccc(C#N)cc1 (centres unmarked)
3. CC1(CO)C(=O)N(c2ccc(C#N)c(C(F)(F)F)c2)C(=O)N1c1ccc(Cl)cc1 (centres unmarked)
4. CC1(CO)C(=O)N(c2ccc(C#N)c(C(F)(F)F)c2)C(=S)N1c1ccc([N+](=O)[O-])cc1 (centres unmarked)
5. CC1(CO)C(=O)N(c2ccc(C#N)c(C(F)(F)F)c2)C(=O)N1c1ccc([N+](=O)[O-])cc1 (centres unmarked)

1. 139 to 141 °C
2. 234 to 236 °C
3. 152 to 154 °C
4. 206 to 208 °C
5. 160 to 162 °C

====

target: androgen receptor (AR) (Homo sapiens, UniProt P10275)
method: AR antagonist luciferase gene reporter assay (AR plasmid pSVAR0 + MMTV-Luc, DHT at EC80)
condition-details: Antagonist Activity in CV-1 IC50, luciferase reporter in AR-transfected cells, DHT at EC80, 24 h incubation; means ± SD of three independent experiments
readout: pIC50
Give bare numbers, as −log10 of the molar value.

Look over these answered cases.
molecule	pIC50
CC1(CO)C(=O)N(c2ccc(C#N)c(C(F)(F)F)c2)C(=O)N1c1ccc(Br)cc1 (centres unmarked)	7.07
CN1CCC(Oc2ccc(N3C(=S)N(c4ccc(C#N)c(C(F)(F)F)c4)C(=O)C3(C)CO)cc2)CC1 (centres unmarked)	6.47

Lab note: each molecule below needs its pIC50 filled in.
1. CC1(CO)C(=O)N(c2ccc(C#N)c(C(F)(F)F)c2)C(=O)N1c1ccc(C(F)(F)F)cc1 (centres unmarked)
2. CC1(CO)C(=O)N(c2ccc(C#N)c(C(F)(F)F)c2)C(=O)N1c1ccc(F)cc1 (centres unmarked)

1: 6.83; 2: 7.17

====

target: androgen receptor (AR) (Homo sapiens)
method: AR antagonist luciferase gene reporter assay (AR plasmid pSVAR0 + MMTV-Luc, DHT at EC80)
condition-details: Antagonist Activity in CV-1 IC50, luciferase reporter in AR-transfected cells, DHT at EC80, 24 h incubation; means ± SD of three independent experiments
readout: pIC50
Give bare numbers, as −log10 of the molar value.

Look over these answered cases.
compound	pIC50
CC1(CO)C(=O)N(c2ccc(C#N)c(C(F)(F)F)c2)C(=S)N1c1ccc(C#N)cc1 (centres unmarked)	6.47
COC(=O)c1ccc(N2C(=S)N(c3ccc(C#N)c(C(F)(F)F)c3)C(=O)C2(C)CO)cc1 (centres unmarked)	6.27
Cc1ccc(N2C(=S)N(c3ccc(C#N)c(C(F)(F)F)c3)C(=O)C2(C)CO)cc1 (centres unmarked)	6.26
CC1(CO)C(=O)N(c2ccc(C#N)c(C(F)(F)F)c2)C(=S)N1c1ccc(Br)cc1 (centres unmarked)	6.93
CC1(CO)C(=O)N(c2ccc(C#N)c(C(F)(F)F)c2)C(=S)N1c1ccc([N+](=O)[O-])cc1 (centres unmarked)	4.10

Lab note: each compound below needs its pIC50 filled in.
1. COC(=O)c1ccc(N2C(=O)N(c3ccc(C#N)c(C(F)(F)F)c3)C(=O)C2(C)CO)cc1 (centres unmarked)
2. CC1(CO)C(=O)N(c2ccc(C#N)c(C(F)(F)F)c2)C(=O)N1c1ccc(Cl)cc1 (centres unmarked)

6.86
7.16

Form field: reported pIC50 of CC1(CO)C(=O)N(c2cnc(C#N)c(C(F)(F)F)c2)C(=S)N1c1ccccc1 (centres unmarked) [19a]
7.74
